The entries below come with measured normalised response values attached.
System: MDA-MB-231
testDescription: normalised response (% of control), CellTiter-Glo; higher = more viable cells (100 = DMSO, 0 = benzethonium chloride kill control)
studyConditions: incubation time: 72 h
# value in %; strip the unit string

Here is how some molecules turned out for normalised response.
molecule: COc1ccc(-c2cc3c(C)nc(N)nc3n([C@H]3CC[C@H](OCCO)CC3)c2=O)cn1 (100 nM)
normalised response / %: 64.8

molecule: CC/C(=C(\c1ccc(O)cc1)c1ccc(OCCN(C)C)cc1)c1ccccc1 [4-hydroxytamoxifen] (100 nM)
normalised response / %: 100

Let us move to another entry and its normalised response.
Q: May I ask what normalised response has been recorded for Cc1c(Cn2c(C)nc3c(C(=O)O)cc(N4CCOCC4)cc32)cccc1C(F)(F)F (100 nM) ?
A: 104
